assay: Clearance in human liver microsomes; assay type: ADME, Microsome; conditions: read-out: CLH
endpoint.name: microsomal CLint (µL/min/mg)
# output: bare number, implied unit µL/min/mg

Return reported microsomal CLint; argument: CN1CCC[C@@H](NC(=O)Cn2nc(C(C)(C)O)n3c(cc4sc(Cl)cc43)c2=O)C1
37

* * *

test: Metabolic stability in mouse liver microsomes assessed as intrinsic clearance; format: ADME, Microsome; details: read-out: CLH
Label 1.0 when microsomal CLint is strictly below 200 µL/min/mg; at or above that, label 0.0.

A selection of reference data follows.
CC(C)c1nn(CC(=O)Nc2cccnc2)c(=O)c2cc3sccc3n12 | 0.0
CC(C)c1nn(CC(=O)Nc2cccnc2)c(=O)c2cc3sc(F)cc3n12 | 0.0
CCc1nn(CC(=O)NC2CCCNC2)c(=O)c2cc3sccc3n12 (stereo not given) | 1.0
CCCc1nn(CC(=O)Nc2cccnc2)c(=O)c2cc3sccc3n12 | 0.0
CC(C)c1nn(CC(=O)N[C@@H]2CCCN(C)C2)c(=O)c2cc3scnc3n12 | 0.0
CCc1nn(CC(=O)Nc2cccnc2)c(=O)c2cc3sccc3n12 | 0.0
CC(C)c1nn(CC(=O)N[C@@H]2CCCN(C)C2)c(=O)c2cc3sc(Cl)cc3n12 | 0.0
CN1CCC[C@@H](NC(=O)Cn2nc(C(C)(C)O)n3c(cc4sc(Cl)cc43)c2=O)C1 | 1.0
O=C(Cn1nc(C2CC2)n2c(cc3sccc32)c1=O)Nc1cccnc1 | 0.0

Alright, here's another compound for you.
Please state whether microsomal CLint is below 200 µL/min/mg for CC(C)(O)c1nn(CC(=O)N[C@H]2C[C@@](C)(O)C2)c(=O)c2cc3sc(Cl)cc3n12
1.0
